# tested target: Adenosine receptor A2b (Homo sapiens) (UniProt P29275)
# Sequence (whole entry): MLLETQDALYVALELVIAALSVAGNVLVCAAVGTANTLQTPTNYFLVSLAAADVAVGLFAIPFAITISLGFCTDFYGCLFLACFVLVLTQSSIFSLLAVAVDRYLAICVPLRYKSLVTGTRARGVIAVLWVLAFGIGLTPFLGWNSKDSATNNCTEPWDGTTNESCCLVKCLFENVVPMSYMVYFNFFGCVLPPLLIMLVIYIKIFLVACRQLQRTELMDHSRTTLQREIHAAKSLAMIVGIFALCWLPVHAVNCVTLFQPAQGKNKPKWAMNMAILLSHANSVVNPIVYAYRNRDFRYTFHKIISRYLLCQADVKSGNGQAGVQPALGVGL
# protocol description: Displacement of [3]DPCPX from human adenosine A2B receptor expressed in HEK293 cells at 1 uM
# Assay type: cell-based
endpoint label: inhibition (%)
Give the quantity in %, number only.

compound: c1coc(-c2nc3c(N4CCNCC4)nc4ccccc4n3n2)c1
measure unit: %
inhibition: 4
--
compound: O=C(Nc1nc2ccccc2n2nc(-c3ccco3)nc12)c1cccs1
measure unit: %
inhibition: 21
--
compound: OCCN1CCN(c2nc3ccccc3n3nc(-c4ccco4)nc23)CC1
measure unit: %
inhibition: 3
--
compound: OCCN(CCO)c1nc2ccccc2n2nc(-c3ccco3)nc12
measure unit: %
inhibition: 46
--
compound: CN(C)c1nc2ccccc2n2nc(-c3ccco3)nc12
measure unit: %
inhibition: 17
--
compound: c1ccc(COc2nc3ccccc3n3nc(-c4ccco4)nc23)cc1
measure unit: %
inhibition: 3

Entry `COCCNc1nc2ccccc2n2nc(-c3ccco3)nc12` ; inhibition = 32

Entry `COc1nc2ccccc2n2nc(-c3ccco3)nc12` ; inhibition = 28

Entry `c1ccc(CNc2nc3ccccc3n3nc(-c4ccco4)nc23)cc1` ; inhibition = 24

Entry `COC(CNc1nc2ccccc2n2nc(-c3ccco3)nc12)OC` ; inhibition = 22

Entry `c1ccc(Nc2nc3ccccc3n3nc(-c4ccco4)nc23)cc1` ; inhibition = 49

Entry NCC(O)CNc1nc2ccccc2n2nc(-c3ccco3)nc12 (stereo not given) ; inhibition = 34

Entry `CCOc1nc2ccccc2n2nc(-c3ccco3)nc12` ; inhibition = 34

Entry `c1ccc(CCNc2nc3ccccc3n3nc(-c4ccco4)nc23)cc1` ; inhibition = 46

Entry `c1coc(COc2nc3ccccc3n3nc(-c4ccco4)nc23)c1` ; inhibition = 3

---

Target protein (sequence): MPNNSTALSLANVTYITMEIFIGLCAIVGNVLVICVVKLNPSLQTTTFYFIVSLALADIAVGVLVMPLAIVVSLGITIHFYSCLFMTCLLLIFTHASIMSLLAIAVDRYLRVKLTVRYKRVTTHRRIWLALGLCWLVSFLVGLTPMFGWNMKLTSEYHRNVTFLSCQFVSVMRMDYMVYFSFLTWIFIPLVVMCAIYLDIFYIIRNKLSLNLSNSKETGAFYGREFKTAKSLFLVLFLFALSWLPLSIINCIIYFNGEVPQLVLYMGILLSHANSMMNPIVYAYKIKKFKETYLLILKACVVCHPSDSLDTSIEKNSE
# maps each entry to its pKi
Here pKi is given on a logarithmic scale as minus log10 of the concentration in mol/L.

// known answers, use as guide
smiles code: O=C(CCc1ccccc1)Nc1nc2ccccc2n2nc(-c3ccco3)nc12
pKi: 6.90
--
smiles code: O=C(Nc1nc2ccccc2n2nc(-c3ccco3)nc12)c1ccco1
pKi: 6.60
--
smiles code: c1ccc(COc2nc3ccccc3n3nc(-c4ccco4)nc23)cc1
pKi: 5.81

Entry `O=C(Cc1ccccc1)Nc1nc2ccccc2n2nc(-c3ccco3)nc12` ; pKi = 7.00

Just for reference, ChEMBL document CHEMBL1143971 is where these values come from.
